system: rat prostate, seminal vesicle, levator ani muscle; assay: Systemic antiandrogenic activity in orchidectomized immature male rats with DHT implant; format: in vivo; conditions: Rattus norvegicus, 168 h, read-out: Lev Ani % inhibition, Table 1; rat +DHT, s.c. or p.o. (route not marked), levator ani, 0.5 mg/animal daily 7 days
Classification field: enter true for inhibition in vivo at 0.5 mg values not below 60%, false for values below it.

(Q) Determine whether this compound has inhibition in vivo at 0.5 mg no lower than 60%: CC(C)NCc1ccc(OCCCN2C(=S)N(c3ccc(C#N)c(C(F)(F)F)c3)C(=O)C2(C)C)cc1 [EM-7105]
(A) false

(Q) State whether the measured inhibition in vivo at 0.5 mg reaches 60%, counting equality as reaching it, for CC(c1ccc(OCCCN2C(=S)N(c3ccc(C#N)c(C(F)(F)F)c3)C(=O)C2(C)C)cc1)N(C)C (stereo not drawn) [EM-7243]
(A) true

(Q) Can CC(C)NCc1ccc(OCCCN2C(=S)N(c3ccc(C#N)c(C(F)(F)F)c3)C(=O)C2(C)C)c(F)c1 [EM-7918] be said to have inhibition in vivo at 0.5 mg at or above 60%?
(A) false

(Q) In plain terms: is recorded inhibition in vivo at 0.5 mg at least 60% for CCCNCc1ccc(OCCCN2C(=S)N(c3ccc(C#N)c(C(F)(F)F)c3)C(=O)C2(C)C)cc1 [EM-7227] ?
(A) false

(Q) Could you tell me if the measured inhibition in vivo at 0.5 mg of CCC(CC)NCc1ccc(OCCCN2C(=S)N(c3ccc(C#N)c(C(F)(F)F)c3)C(=O)C2(C)C)cc1 [EM-7144] reaches 60% or more?
(A) false

###

target: Human Androgen Receptor (Homo sapiens); experiment: Androgen receptor binding assay ([3H]R1881, HAP) in cytosol of HEK-293 cells transfected with hAR; conditions: Table 1; relative to R1881 = 100, transfected cells
Sequence (P10275 whole entry): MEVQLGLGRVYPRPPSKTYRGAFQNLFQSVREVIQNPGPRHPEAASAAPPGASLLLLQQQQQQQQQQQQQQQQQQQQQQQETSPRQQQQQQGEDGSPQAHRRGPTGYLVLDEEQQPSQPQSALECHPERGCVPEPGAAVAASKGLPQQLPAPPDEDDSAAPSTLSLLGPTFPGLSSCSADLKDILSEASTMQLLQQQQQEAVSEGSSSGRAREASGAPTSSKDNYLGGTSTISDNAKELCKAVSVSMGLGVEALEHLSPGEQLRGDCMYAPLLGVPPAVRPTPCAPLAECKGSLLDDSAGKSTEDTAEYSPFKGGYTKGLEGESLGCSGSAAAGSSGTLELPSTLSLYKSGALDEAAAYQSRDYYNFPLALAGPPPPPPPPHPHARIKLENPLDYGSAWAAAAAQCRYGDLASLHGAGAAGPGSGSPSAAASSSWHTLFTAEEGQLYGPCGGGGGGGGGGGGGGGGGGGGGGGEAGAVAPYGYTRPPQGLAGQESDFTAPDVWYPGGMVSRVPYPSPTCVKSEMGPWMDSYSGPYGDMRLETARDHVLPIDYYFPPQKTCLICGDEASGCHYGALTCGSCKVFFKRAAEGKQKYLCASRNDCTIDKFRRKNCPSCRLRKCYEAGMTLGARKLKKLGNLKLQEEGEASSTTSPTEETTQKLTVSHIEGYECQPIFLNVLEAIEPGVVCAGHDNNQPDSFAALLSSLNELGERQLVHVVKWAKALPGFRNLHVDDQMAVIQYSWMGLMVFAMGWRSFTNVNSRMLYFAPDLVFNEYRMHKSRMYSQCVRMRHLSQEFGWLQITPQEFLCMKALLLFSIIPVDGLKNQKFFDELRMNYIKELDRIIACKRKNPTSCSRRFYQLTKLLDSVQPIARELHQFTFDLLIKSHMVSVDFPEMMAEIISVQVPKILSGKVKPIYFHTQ
For each entry below, report its Human Androgen Receptor Binding (%) RBA R1881 = 100 value.
Express it in %; write the number only.

So for CCN(C)Cc1ccc(OCCCN2C(=S)N(c3ccc(C#N)c(C(F)(F)F)c3)C(=O)C2(C)C)cc1 , the logged Human Androgen Receptor Binding (%) RBA R1881 = 100 turned out to be 18.0

Kindly note the recorded Human Androgen Receptor Binding (%) RBA R1881 = 100 for CC1(C)C(=O)N(c2ccc(C#N)c(C(F)(F)F)c2)C(=S)N1CCCOc1ccc2c(C(F)(F)F)cc(=O)oc2c1 , which is 7.7

Human Androgen Receptor Binding (%) RBA R1881 = 100 in this record for CC(C)NCc1ccc(OCCCN2C(=S)N(c3ccc(C#N)c(C(F)(F)F)c3)C(=O)C2(C)C)cc1 : 11.7

// Human Androgen Receptor Binding (%) RBA R1881 = 100 lookup, molecule = CC(C)NCc1ccc(OCCCN2C(=S)N(c3ccc(C#N)c(C(F)(F)F)c3)C(=O)C2(C)C)c(F)c1 , result: 16.9

Input CC(=O)Nc1ccc(OCCCN2C(=S)N(c3ccc(C#N)c(C(F)(F)F)c3)C(=O)C2(C)C)cc1 . Output Human Androgen Receptor Binding (%) RBA R1881 = 100: 12.1

Data point: CC1(C)C(=O)N(c2ccc(C#N)c(C(F)(F)F)c2)C(=S)N1CCCOc1ccc(CN2CCOCC2)cc1 ; Human Androgen Receptor Binding (%) RBA R1881 = 100 = 32.4

Consider CC1(C)C(=O)N(c2ccc(C#N)c(C(F)(F)F)c2)C(=S)N1CCCOc1ccc(CN2CCC(O)C2)cc1 (stereo not drawn) . Its measured Human Androgen Receptor Binding (%) RBA R1881 = 100 is 24.0

According to the records, this molecule CCC(=O)c1cccc(OCCCN2C(=S)N(c3ccc(C#N)c(C(F)(F)F)c3)C(=O)C2(C)C)c1 displays Human Androgen Receptor Binding (%) RBA R1881 = 100 of 30.5

Lookup result for CCC(C)NCc1ccc(OCCCN2C(=S)N(c3ccc(C#N)c(C(F)(F)F)c3)C(=O)C2(C)C)cc1 (stereo not drawn) ; measured Human Androgen Receptor Binding (%) RBA R1881 = 100: 15.3

Briefly, Human Androgen Receptor Binding (%) RBA R1881 = 100 measured for CC1(C)C(=O)N(c2ccc(C#N)c(C(F)(F)F)c2)C(=S)N1CCCOc1ccc(CN2CCC(=O)C2)cc1 : 53.0

Record summary for CC(C)NCc1ccc(OCCCN2C(=S)N(c3ccc(C#N)c(C(F)(F)F)c3)C(=O)C2(C)C)nc1 : reported Human Androgen Receptor Binding (%) RBA R1881 = 100 = 0.5

// recorded Human Androgen Receptor Binding (%) RBA R1881 = 100 for CC(C)Sc1ccc(OCCCN2C(=S)N(c3ccc(C#N)c(C(F)(F)F)c3)C(=O)C2(C)C)cc1 : 1.0

Reported Human Androgen Receptor Binding (%) RBA R1881 = 100 of CC(C)NC(=O)c1ccc(OCCCN2C(=S)N(c3ccc(C#N)c(C(F)(F)F)c3)C(=O)C2(C)C)cc1 : 37.0

The reported Human Androgen Receptor Binding (%) RBA R1881 = 100 of the molecule COc1cc(CNC(C)C)ccc1OCCCN1C(=S)N(c2ccc(C#N)c(C(F)(F)F)c2)C(=O)C1(C)C was 0.5

Memo: Cc1cc2c(C)c(C)c(=O)oc2cc1OCCCN1C(=S)N(c2ccc(C#N)c(C(F)(F)F)c2)C(=O)C1(C)C , reported Human Androgen Receptor Binding (%) RBA R1881 = 100: 50.5

###

tested on: rat prostate, seminal vesicle, levator ani muscle; experiment: Systemic antiandrogenic activity in orchidectomized immature male rats with DHT implant; assay type: in vivo; settings: Rattus norvegicus, 168 h, read-out: Lev Ani % inhibition, Table 1; rat +DHT, s.c. or p.o. (route not marked), levator ani, 0.5 mg/animal daily 7 days
I'd appreciate it if you could supply inhibition in vivo at 0.5 mg values for the items below.
Write the number in % without appending the unit.

Entry under test: CC(C)NCc1ccc(OCCCN2C(=S)N(c3ccc(C#N)c(C(F)(F)F)c3)C(=O)C2(C)C)c(Cl)c1 [EM-7919] . Its inhibition in vivo at 0.5 mg was 9

Looking up CC(NC1CC1)c1ccc(OCCCN2C(=S)N(c3ccc(C#N)c(C(F)(F)F)c3)C(=O)C2(C)C)cc1 (stereo not shown) [EM-7169] , I found its inhibition in vivo at 0.5 mg recorded as 31

Lab note: CC1(C)C(=O)N(c2ccc(C#N)c(C(F)(F)F)c2)C(=S)N1CCCOc1ccc(CN2CCCC2)cc1 [EM-7232] gave inhibition in vivo at 0.5 mg of 70

Summary for this compound, CC1(C)C(=O)N(c2ccc(C#N)c(C(F)(F)F)c2)C(=S)N1CCCOc1ccc(CN2CCC(=O)C2)cc1 [EM-7371] : inhibition in vivo at 0.5 mg is 21

Entry CN(C)Cc1ccc(OCCCN2C(=S)N(c3ccc(C#N)c(Cl)c3)C(=O)C2(C)C)cc1 [EM-7821] , inhibition in vivo at 0.5 mg reported as 32

Lab book: inhibition in vivo at 0.5 mg of CC1(C)C(=O)N(c2ccc(C#N)c(C(F)(F)F)c2)C(=S)N1CCCOc1ccc(CN2CCOCC2)cc1 [EM-7248] noted as 44

Looking up CC(C)N(C)Cc1ccc(OCCCN2C(=S)N(c3ccc(C#N)c(C(F)(F)F)c3)C(=O)C2(C)C)cc1 [EM-7233] , I see its inhibition in vivo at 0.5 mg listed as 70

###

biological target: Human Androgen Receptor (Homo sapiens); test: Androgen receptor binding assay ([3H]R1881, HAP) in cytosol of HEK-293 cells transfected with hAR; settings: Table 2; relative to R1881 = 100, transfected cells
Each entry gets Not satisfied if its Human Androgen Receptor Binding (%) RBA R1881 = 100 stays under 2%, and Satisfied if its Human Androgen Receptor Binding (%) RBA R1881 = 100 is 2% or above.

(Q) Does the reported Human Androgen Receptor Binding (%) RBA R1881 = 100 for Cc1cc(CN2CCCC2)ccc1OCCC1(O)CCN(c2ccc(C#N)c(Cl)c2)CC1 [EM-7735] fall at or above the 2% mark?
(A) Satisfied

(Q) Reported Human Androgen Receptor Binding (%) RBA R1881 = 100 at or above 2%? C[C@@H]1CCC[C@H](C)N1Cc1ccc(OCCC2(O)CCN(c3ccc(C#N)c(C(F)(F)F)c3)CC2)cc1
(A) Satisfied

(Q) Quick check, Human Androgen Receptor Binding (%) RBA R1881 = 100 >= 2%? N#Cc1ccc(N2CCC(O)(CCCOc3ccc(C(=O)N4CCOCC4)cc3)CC2)cc1C(F)(F)F
(A) Not satisfied

(Q) Identify whether the reported Human Androgen Receptor Binding (%) RBA R1881 = 100 of the following compound is 2% or greater: Cc1cc(CN2CCOCC2)ccc1OCCC1(O)CCN(c2ccc(C#N)c(C(F)(F)F)c2)CC1
(A) Satisfied

(Q) Quick check: does N#Cc1ccc(N2CCC(O)(CCOc3ccc(C(=O)N4CCOCC4)cc3)CC2)cc1C(F)(F)F have Human Androgen Receptor Binding (%) RBA R1881 = 100 greater than or equal to 2%?
(A) Satisfied

(Q) Identify whether the reported Human Androgen Receptor Binding (%) RBA R1881 = 100 of the following compound is 2% or greater: N#Cc1ccc(N2CCC(O)(CCOc3ccc(S(=O)(=O)N4CCCC4)cc3)CC2)cc1C(F)(F)F
(A) Satisfied

(Q) Would you say N#Cc1ccc(N2CCC(O)(CCOc3ccc(CN4CCOCC4)cc3)CC2)cc1Cl shows Human Androgen Receptor Binding (%) RBA R1881 = 100 at minimum 2%?
(A) Satisfied

(Q) Assess whether reported Human Androgen Receptor Binding (%) RBA R1881 = 100 for N#Cc1ccc(N2CCC(O)(CCOc3ccc(-c4cccnc4)c(CN4CCCC4)c3)CC2)cc1C(F)(F)F sits at 2% or higher.
(A) Not satisfied
